# ASSAYED TARGET: HTR2B Human 5-Hydroxytryptamine GPCR (Homo sapiens)
# Construct: 86-0030P-2091AN
# Sequence (P41595 whole entry): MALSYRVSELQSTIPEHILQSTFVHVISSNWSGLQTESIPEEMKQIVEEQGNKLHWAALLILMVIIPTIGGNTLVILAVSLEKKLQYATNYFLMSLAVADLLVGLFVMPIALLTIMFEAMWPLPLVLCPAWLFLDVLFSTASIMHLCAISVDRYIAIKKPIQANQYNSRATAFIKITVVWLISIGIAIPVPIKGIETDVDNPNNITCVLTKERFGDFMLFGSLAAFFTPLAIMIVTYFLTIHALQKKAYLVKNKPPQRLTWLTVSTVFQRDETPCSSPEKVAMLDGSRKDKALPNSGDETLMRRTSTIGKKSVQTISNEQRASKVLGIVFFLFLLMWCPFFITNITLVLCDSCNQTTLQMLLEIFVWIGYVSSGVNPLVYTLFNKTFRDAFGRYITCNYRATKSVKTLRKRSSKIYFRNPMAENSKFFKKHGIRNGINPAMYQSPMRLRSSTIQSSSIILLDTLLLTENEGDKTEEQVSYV
# ASSAY SUMMARY: HTR2B GPCR calcium assay, 86-0030P-2091AG
# Assay type: cell-based
pIC50: −log10 of the molar value.
READOUT KIND: pIC50

SMILES TEXT: CC(C)Oc1ccc(-c2ncc(CNc3ccnc(C(F)(F)F)c3)cn2)cc1Cl
READOUT KIND: pIC50
MEASURED RESULT: < 5.00

* * *

# Tested on: Pseudomonas aeruginosa strain PA14
# ASSAY SUMMARY: Alkylquinolone quantification, strain PA14
# Format: cell-based
# MEASUREMENT SETUP: PA14, 17 h, read-out: IC50 PA14, PQS biosynthesis

SMILES TEXT: CC(C)Oc1ccc(-c2ncc(CNc3ccnc(C(F)(F)F)c3)cn2)cc1Cl
IC50 (nM): 349
